- tested-target: T1, recombinant human IL-1 beta (human, UniProt P01584 117-269)
- T1 construct: Bought protein; also called rhIL-1 beta; rhIL1-beta
- assay-text: ELISA, cleared E. coli lysate on coated rhIL-1 beta
measured-metric: binding result

• DLX2677 (scFv, tested as cleared E. coli lysate; also called DLX2528_2531) scFv: EIVMTQSPSTLSASVGDRVTITCQASQSIGNWLAWYQQKPGKAPKLLIYQASNLASGVPSRFSGSGSGTDFTLTISSLQPDDFATYYCQNAGGATTIAFGQGTKLTVLGGGGGSGGGGSGGGGSGGGGSEVQLVESGGGNVQPGGSLRLSCTASGFSLSNSAMAWVRQAPGKGLEWVGIIYDSASTYYASWAKGRFTISRDNSKNTVYLQMNSLRAEDTATYYCARERAIFSGDFALWGQGTLVTVSS = binds
• DLX2691 (scFv, tested as cleared E. coli lysate; also called DLX2544_2585) scFv: ADIVMTQSPSTLSASVGDRVTITCQASQSISSYLSWYQQKPGKAPKLLIYKASTLASGVPSRFSGSGSGTDFTLTISSLQPEDFATYYCQNAGGGINIAFGQGTKVEIKRGGGGSGGGGSGGGGSGGGGSEVQLVESGGGLVQPGGSLRLSCTVSGFSLSSYAMSWVRQAPGKGLEWVGIIYDSASTYYASWAKGRFTISKDTSKNTVYLQMNSLRAEDTAVYYCARERAIFSGDFDYWGQGTLVTVSS = binds

// provenance: patent US20140134183A1
